Parameter pIC50: see the listing below.
# Assayed Target: human FASN (Homo sapiens)
# Construct: was purified from SKBR3 cells using procedures modified from those in Jayakumar et al; endogenous in cells; host or cells: SKBR3 human breast cancer cells (ATCC); Endogenous enzyme purified by ammonium sulfate precipitation and a mono Q column
# Sequence (P49327 whole entry): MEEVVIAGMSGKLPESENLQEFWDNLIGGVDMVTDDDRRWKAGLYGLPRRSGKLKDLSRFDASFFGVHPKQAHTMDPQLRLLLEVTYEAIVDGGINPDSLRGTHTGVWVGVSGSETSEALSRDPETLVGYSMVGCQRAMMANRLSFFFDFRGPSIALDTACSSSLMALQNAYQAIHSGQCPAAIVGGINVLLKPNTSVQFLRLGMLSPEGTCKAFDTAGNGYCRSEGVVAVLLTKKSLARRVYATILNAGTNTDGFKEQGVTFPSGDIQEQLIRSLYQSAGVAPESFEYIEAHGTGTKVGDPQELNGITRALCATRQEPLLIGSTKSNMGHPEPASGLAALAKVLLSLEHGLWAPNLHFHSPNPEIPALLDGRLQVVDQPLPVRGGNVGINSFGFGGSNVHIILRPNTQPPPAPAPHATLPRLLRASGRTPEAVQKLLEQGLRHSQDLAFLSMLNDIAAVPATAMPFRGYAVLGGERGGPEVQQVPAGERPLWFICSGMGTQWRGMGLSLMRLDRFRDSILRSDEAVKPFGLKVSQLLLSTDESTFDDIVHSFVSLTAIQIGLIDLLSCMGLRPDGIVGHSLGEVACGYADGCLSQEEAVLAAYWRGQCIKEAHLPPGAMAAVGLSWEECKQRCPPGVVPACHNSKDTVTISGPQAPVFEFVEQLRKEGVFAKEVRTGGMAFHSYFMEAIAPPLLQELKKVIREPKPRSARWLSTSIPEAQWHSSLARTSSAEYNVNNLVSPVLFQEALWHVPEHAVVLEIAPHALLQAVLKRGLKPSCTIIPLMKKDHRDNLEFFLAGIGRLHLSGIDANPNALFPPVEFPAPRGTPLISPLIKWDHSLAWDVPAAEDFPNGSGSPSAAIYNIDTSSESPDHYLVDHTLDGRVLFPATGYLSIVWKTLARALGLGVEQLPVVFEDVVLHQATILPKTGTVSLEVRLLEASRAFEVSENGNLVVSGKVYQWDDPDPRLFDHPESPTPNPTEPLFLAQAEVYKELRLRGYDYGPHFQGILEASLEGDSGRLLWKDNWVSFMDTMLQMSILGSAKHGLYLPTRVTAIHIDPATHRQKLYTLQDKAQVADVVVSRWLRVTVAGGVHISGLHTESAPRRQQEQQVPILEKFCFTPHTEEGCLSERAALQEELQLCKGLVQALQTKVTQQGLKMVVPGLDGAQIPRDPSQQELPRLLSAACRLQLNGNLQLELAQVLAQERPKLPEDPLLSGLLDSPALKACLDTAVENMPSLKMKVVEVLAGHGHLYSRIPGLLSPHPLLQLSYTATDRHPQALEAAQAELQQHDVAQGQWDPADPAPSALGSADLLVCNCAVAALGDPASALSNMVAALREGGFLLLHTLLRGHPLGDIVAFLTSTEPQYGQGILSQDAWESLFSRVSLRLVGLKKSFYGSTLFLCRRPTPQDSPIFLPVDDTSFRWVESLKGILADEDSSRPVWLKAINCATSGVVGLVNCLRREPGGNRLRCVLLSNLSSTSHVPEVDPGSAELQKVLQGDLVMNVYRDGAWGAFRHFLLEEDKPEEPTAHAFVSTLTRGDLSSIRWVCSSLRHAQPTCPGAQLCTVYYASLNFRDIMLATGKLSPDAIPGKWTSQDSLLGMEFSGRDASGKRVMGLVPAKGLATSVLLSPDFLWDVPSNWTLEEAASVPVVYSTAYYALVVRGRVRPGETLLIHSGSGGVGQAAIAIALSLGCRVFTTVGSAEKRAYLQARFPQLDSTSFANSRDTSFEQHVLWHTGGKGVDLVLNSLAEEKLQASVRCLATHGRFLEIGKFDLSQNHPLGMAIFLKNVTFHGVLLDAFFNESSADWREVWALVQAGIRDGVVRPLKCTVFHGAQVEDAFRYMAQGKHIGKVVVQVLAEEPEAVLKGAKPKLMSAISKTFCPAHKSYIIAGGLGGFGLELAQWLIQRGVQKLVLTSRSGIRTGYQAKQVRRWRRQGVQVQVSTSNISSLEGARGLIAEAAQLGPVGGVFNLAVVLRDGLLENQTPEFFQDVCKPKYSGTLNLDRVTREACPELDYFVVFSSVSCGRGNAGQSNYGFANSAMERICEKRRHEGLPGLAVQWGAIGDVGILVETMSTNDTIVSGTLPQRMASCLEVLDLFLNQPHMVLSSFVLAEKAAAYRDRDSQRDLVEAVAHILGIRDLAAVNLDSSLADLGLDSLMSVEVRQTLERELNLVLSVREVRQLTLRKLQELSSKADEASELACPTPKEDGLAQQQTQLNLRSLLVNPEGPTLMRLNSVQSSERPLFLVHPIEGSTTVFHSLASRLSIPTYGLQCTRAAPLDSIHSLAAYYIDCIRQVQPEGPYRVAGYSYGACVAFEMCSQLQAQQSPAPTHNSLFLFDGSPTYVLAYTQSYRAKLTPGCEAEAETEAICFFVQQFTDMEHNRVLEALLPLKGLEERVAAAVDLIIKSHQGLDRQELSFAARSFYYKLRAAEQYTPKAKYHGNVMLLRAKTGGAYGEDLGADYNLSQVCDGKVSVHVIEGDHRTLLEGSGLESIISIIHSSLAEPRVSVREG
# Test: FASN NADPH Consumption Assay
# Format: biochemical
# Details: human FASN purified from SKBR3 cells; starred symbols
pIC50: −log10 of the molar value.

{"columns": ["Molecule", "pIC50"],
 "data": [
  ["CCNC(=O)N1CCC(N(CC)C(=O)n2nnn(-c3c(Cl)cccc3Cl)c2=O)CC1", "5.00 to 6.00"],
  ["CCN(C(=O)n1nnn(-c2c(F)cccc2C#Cc2ccccc2)c1=O)c1ccccc1", "6.60 to 7.22"],
  ["CCN(C(=O)n1nnn(-c2ccc(F)c(F)c2F)c1=O)C1CCCCC1", "< 5.00"]
]}

Field request: pIC50 | item: CCN(C(=O)n1nnn(-c2ccccc2C#N)c1=O)C1CCCCC1
5.00 to 6.00

Field request: pIC50 | item: Cc1ccccc1C#Cc1cccc(F)c1-n1nnn(C(=O)N2CCCC3CCCCC32)c1=O (stereo not shown)
6.60 to 7.22

Field request: pIC50 | item: CCN(C(=O)n1nnn(-c2c(C)cc(C)cc2C)c1=O)C1CCCCC1
< 5.00

Field request: pIC50 | item: CC(C)N(C(=O)n1nnn(-c2ccccc2Cl)c1=O)c1ccccc1
6.00 to 6.60

Field request: pIC50 | item: O=C(N(c1ccccc1)c1ccccc1)n1nnn(-c2ccccc2Oc2ccccc2)c1=O
6.60 to 7.22

Field request: pIC50 | item: CCN(C(=O)n1nnn(-c2c(F)cccc2F)c1=O)c1ccc(C#CC(C)(C)C)cc1F
6.60 to 7.22

Field request: pIC50 | item: CCN(C(=O)n1nnn(-c2c(F)cccc2F)c1=O)c1ccc(C(=O)NC(C)C)cc1F
> 7.22
